Experimental Details: PFAS levels in serum samples of airport employees (LC/MS/MS)
Protocol Conditions: females (N=7)
Property Name: Initial serum PFAS level, max (ng/mL)

compound=O=S(=O)(O)C(F)(F)C(F)(F)C(F)(F)C(F)(F)F numeric_result=1.3
compound="O=S(=O)(O)C(F)(C(F)(F)F)C(F)(F)C(F)(F)C(F)(F)C(F)(F)C(F)(F)C(F)(F)F (centres unmarked) [1m-PFOS, perfluoro-1-methylheptanesulfonate]" numeric_result=1.1
compound=O=C(O)C(F)(F)C(F)(F)C(F)(F)C(F)(F)C(F)(F)C(F)(F)C(F)(F)F numeric_result=20
compound=O=S(=O)(O)C(F)(F)C(F)(F)C(F)(F)C(F)(F)C(F)(F)F numeric_result=15
compound=O=S(=O)(O)C(F)(F)C(F)(F)C(F)(F)C(F)(F)C(F)(F)C(F)(F)C(F)(F)C(F)(F)F numeric_result=13

The reported measurements were obtained from paper PMC7351026.
